Attribution: the NTF2 design screens of Basanta et al. (2020)

- EXPERIMENTAL_PROTOCOL: protease stability score; higher = more stable; yeast display proteolysis, trypsin and chymotrypsin;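 note: log10 excess protease needed over predicted unfolded state with 0 meaning unfolded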
READOUT_LABEL: protease stability score

- SEQUENCE_ENTRY: "EEEANRNVRKFEQALRHNDPHTLLELVDPNADLQIGNERIKGMHHAAKHLIDWMEEIRVQIRRVTFITRPNHAQLKRKVQAEVNGQPFEYTVEVVFNFHNGRVTEVHMRMDEDKQRKLRS"
  READOUT_LABEL: "protease stability score"
  REPORTED_MEASUREMENT: 0.12
- SEQUENCE_ENTRY: "DSRAQSLFHKWMDALRTGDRRKLSELADPNVSITYGDKTIHGREENMKEAHRLVNQMRVDFDIKSIENEPNRVIIRMRVEYDVNGRPFDDEVVVELRAKGDHIKEVRVRIDPRQVKELSG"
  READOUT_LABEL: "protease stability score"
  REPORTED_MEASUREMENT: 0.907
- SEQUENCE_ENTRY: "DEENVKQAKKFADAMRHGDPEKLAKLADENAKLVIGDKTVHGRDDLRRERKKLNEHSRQHVDVKSIEAENGRVDVTASMTLSHNGKPDQVHVKIHMRITNGQIEEVHVNYKP"
  READOUT_LABEL: "protease stability score"
  REPORTED_MEASUREMENT: -0.492
- SEQUENCE_ENTRY: "DREVIKLAKRMITALQKGDHQKFVNLLDPNVRIDVGDKEVHGQEEAQERLREETRQIRVDNHVKTIDDNNGRANFKMSVNAQVNGKPVHYEVNAVVHAHNGKARRLHIKVPEEDKRHLDR"
  READOUT_LABEL: "protease stability score"
  REPORTED_MEASUREMENT: 0.034
- SEQUENCE_ENTRY: "DEQKDAERAIEALRVMLQGDDDSVRKMVDPNATLTVGDTEYKGREEFVKYARTLRRRADHFRIDTVHVEGDTAVMQAQVNVNGKTKTIRINVRAHNGRVVHVHVDPDQLKRIES"
  READOUT_LABEL: "protease stability score"
  REPORTED_MEASUREMENT: 0.831

---

- EXPERIMENTAL_PROTOCOL: protease stability score; higher = more stable; yeast display proteolysis, trypsin and chymotrypsin;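 note: log10 excess protease needed over predicted unfolded state with 0 meaning unfolded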
Where protease stability score equals or exceeds 0.2, the correct label is criterion met; where it does not, the label is criterion not met.

- SEQUENCE_ENTRY: "DEEESDRLKELFRVMRTGDHKRAENMLDPNARFKVGDKKFEGRHEWQKDIKKTKEESHADIKIKDVHFDNGRVDVTLEMVVLHNGRPKKFRVKFVATIQGEKVKEAHITESQ"
  ASSIGNED_CLASS: "criterion not met"
- SEQUENCE_ENTRY: "DQDAQRQLREAMKDEESGDHRSIRENIDPNAKLDVGDKDVTGRENVAKEIKHQVDESRVKIDHYRMEVHGDRVTVTFNAVETHNGQPRRKTYQVIFKIHNGQFKKIMMRTSQ"
  ASSIGNED_CLASS: "criterion met"
- SEQUENCE_ENTRY: "DEDQVRQANDNVIKAMKNGDPRKFKELFDPNARANYGDKEIHGMHTAMQRLVELLQQVDHIRIKDIKVENGHVHVDLVLEVNGRSVRFTITFRQSNGKVEELRMDPEDQKTLRR"
  ASSIGNED_CLASS: "criterion not met"
- SEQUENCE_ENTRY: "DEEKRAKTIVKKIHKAWTHNDERTFKNMADPNAEVRVGDQTYHGMEQWQREQAKRAQNYDHVDFDVKNVEVKGEKVDILMEFQMNDNGKNDTERRVVVVVDVNGQDRIRSVHKG"
  ASSIGNED_CLASS: "criterion not met"
- SEQUENCE_ENTRY: "DSQERADDWMRDFNRAVQHGDPTQLTDLMDKDANARIGDTSVHGRHHLVTRWQQFRTDVDRVDIHIVSIEVQGDKIHIDMTFQADVNGRRKEDHIVIIAVDRNGKVKVQQIQDK"
  ASSIGNED_CLASS: "criterion not met"
- SEQUENCE_ENTRY: "DDEANRVARHFVKALRKGDPDRLREMVDPNAKVVVGDQSWHGRDSLHHILEREIKEIRISIKDVKFQDQGDKANVEMRVESKHNGQPSESSSSVIVVVRNGRIQEIDMKTSG"
  ASSIGNED_CLASS: "criterion met"
- SEQUENCE_ENTRY: "EEENQKLAKKFITAVNKGNPKELNENVDPNARLVIGDKTIHGRETLDRWAKKVKDDMRNHWHVTSLRVSNGDIKADVKVVINHNGKPDDFTLDMTMEVHNGKIKRMDARDSQ"
  ASSIGNED_CLASS: "criterion not met"
- SEQUENCE_ENTRY: "DEERQKEALKVHKKGDFDKILDQADEDVQVVIGDKKYHGREEATTALKKILDSIDHLKFESITIQNGRVRVDAILEFNGQQNRVIIVVEVHNGKVKKVEIRVTDPSQEDKLKKRVD"
  ASSIGNED_CLASS: "criterion not met"
- SEQUENCE_ENTRY: "DRSQVESAMRKALHNDPREHEKMFDKDARIQIGDTTFTGQETVLRVIRQLLTKADHIQINDYEISGNKVRIDVQVEVNGRRVRVELDFTVSNGRIKHATWKARSEEELHRIKENLR"
  ASSIGNED_CLASS: "criterion met"
- SEQUENCE_ENTRY: "DQEREMQEWYEKLVRNYENNDRDRLNELLDPNAQFNVGDQTFHGRENAKKWLKTMVDKVDSVEFDLRRLHVHGNKVVFHANVRYRVNGTDTTVDVVIVARVDNGRLRVEKVEYG"
  ASSIGNED_CLASS: "criterion met"
- SEQUENCE_ENTRY: "DENLERQASRLISALLDNDPDLAVELVDENVKVQIGDKTVHGRETVHRHIETLVHHMRMDLDRFHVEVSGEKAKITLDVRFKINGKPIKDTLDVFFTAHNGKIKSVHFRMPEEHKKQVDR"
  ASSIGNED_CLASS: "criterion met"
- SEQUENCE_ENTRY: "DKEELQHLIRLEEHNDWDKFARQAPPNATLQVGDRVVHGREEAVKFAEKLKKRVDHISIESIDRRGEKLQIVYTMVVDGKRVKAVVVLRASNGRAQSVVFQARDPHDQQVIKENLS"
  ASSIGNED_CLASS: "criterion not met"
- SEQUENCE_ENTRY: "DEDEERKVVHSIMHALEKGDEQKAVDLMDPNVKVIIGDKEISGRERVRDVAQELRKRIDHLRVKTLDVKNGQARAVAEVEHNGQERRIEFNMQLDNGRVKDMRIQER"
  ASSIGNED_CLASS: "criterion met"
- SEQUENCE_ENTRY: "DEDEEETLAQTWIKLMETGDPEQNMENVDPNVKVTYGDKTLHGREQFSDWEKKLHERVDRIEIKKMDVHNGSIRIVVVNDVNGKTKRFVVHLIYENGRLKSAKETDQ"
  ASSIGNED_CLASS: "criterion met"
- SEQUENCE_ENTRY: "DEKEEARELMERLREIIETGNEREAKKLADKDARNNVGDKVLHGREEIVRQLITLYKTADHVDLKFRDYRVDNGKFTMDMKVRFHHNGNTIERRYQMSFDTHNGRLTATRYRNS"
  ASSIGNED_CLASS: "criterion met"
- SEQUENCE_ENTRY: "DEETNQELLERLIDLISHGDEDEFNRQADEEAKAQYGDTRYHGREEVVKAIKTLADRVDHWHIESYHVHGNEMVIDMRWTVNGRTRRANIVMEAENGRIKYVQMDDQ"
  ASSIGNED_CLASS: "criterion met"
- SEQUENCE_ENTRY: "DERDQRRRMDQARKILKNNDEEKFNRLLDENARMRVGEKVFHGRRQARTHLKRLHEHVDSIRVNHVSVHNGNVEVVVTMQHNGRYRQIRFDMQVHNGRAKEVKIDTS"
  ASSIGNED_CLASS: "criterion not met"
- SEQUENCE_ENTRY: "DHEEKAKKFFDDLLRAVKHNDETQLERLFDKNVRFNVGEHNFRGREEFVKMVRTMVEQVDHVTATIVSIETNGDKVNLVAQWDMSHNGNSKRIRVLVVLDDNNGRVVAREMSEK"
  ASSIGNED_CLASS: "criterion met"
- SEQUENCE_ENTRY: "DEEVLEQVKKYIDAEKSNDPDQAVKLFDENADMQIGDKRVNGREQIKTEIERRIREMNRDVEVTHVHVDNGRATLTVRLRFTVNGKPHEDRFIIQAHATNGRINTLTVHFDEQSKRDVDK"
  ASSIGNED_CLASS: "criterion met"
- SEQUENCE_ENTRY: "DEETQFKKLMETMKEQNKRGDPRKHEEYVDPNAKVRVGDQDLHGREDVRRVLQEWAERADHVDLKVESMSVHNGKQTAIMVIVLRYNGRNETRRVQVVFDKSNGTVRLVNLRNS"
  ASSIGNED_CLASS: "criterion met"
- SEQUENCE_ENTRY: "DESAQRLFEELLKAEHDGDRDRYQQLIDPNARIQVGDKSVKGRENIKHDVYRKHKEIRFSIQSMNNKVDGDKVKVDAKVVKEHDGRPDHAQITATVRARGDKVDEIRKEERK"
  ASSIGNED_CLASS: "criterion not met"
- SEQUENCE_ENTRY: "DEEFRHQVKQFLRAETRGNEETLKEQMDKDATFEVGDRVINGHEKYASDQHERRKEIRVEIKSMEVDAQGNTADYEIDFVEHFDGKPHRRKVRASIRVHNGRVKEIVEKDSQ"
  ASSIGNED_CLASS: "criterion not met"
